Catalogue of AC50 readings, one per entry.
Target: Adenosine receptor A3 (Homo sapiens); further: assay procedure not described here
Sequence (P0DMS8 whole entry): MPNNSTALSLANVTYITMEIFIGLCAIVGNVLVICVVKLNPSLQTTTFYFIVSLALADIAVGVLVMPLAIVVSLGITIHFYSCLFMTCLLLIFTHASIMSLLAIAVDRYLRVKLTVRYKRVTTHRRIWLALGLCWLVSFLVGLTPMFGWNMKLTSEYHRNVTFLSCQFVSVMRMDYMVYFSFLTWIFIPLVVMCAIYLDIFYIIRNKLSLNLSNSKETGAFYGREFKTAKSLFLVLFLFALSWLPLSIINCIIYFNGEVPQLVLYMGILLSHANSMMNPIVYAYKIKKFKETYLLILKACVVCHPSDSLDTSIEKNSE
ATTRIBUTE_MEASURED: AC50

> print(dat)
                                   compound  observed.measurement
1  CO/N=C(\C(=O)N[C@@H]1C(=O)N2C(C(=O)[O-])=C(C[n+]3ccc(N)n3CCO)CS[C@H]12)c1csc(N)n1 [CEFOSELIS]               > 30 µM
2  CN1CCC(=C2c3ccccc3CC(=O)c3sccc32)CC1 [KETOTIFEN]               > 10 µM
3  CO[C@@H]1[C@@H](OC(N)=O)[C@@H](O)[C@H](Oc2ccc3c(O)c(NC(=O)c4ccc(O)c(CC=C(C)C)c4)c(=O)oc3c2C)OC1(C)C [NOVOBIOCIN]               > 30 µM
4    O=C(O)c1ccc2nc(-c3cc(Cl)cc(Cl)c3)oc2c1               > 30 µM

----------
target: Prostaglandin G/H synthase 1 (Homo sapiens); type: functional; further: assay procedure not described here
Sequence (P23219 whole entry): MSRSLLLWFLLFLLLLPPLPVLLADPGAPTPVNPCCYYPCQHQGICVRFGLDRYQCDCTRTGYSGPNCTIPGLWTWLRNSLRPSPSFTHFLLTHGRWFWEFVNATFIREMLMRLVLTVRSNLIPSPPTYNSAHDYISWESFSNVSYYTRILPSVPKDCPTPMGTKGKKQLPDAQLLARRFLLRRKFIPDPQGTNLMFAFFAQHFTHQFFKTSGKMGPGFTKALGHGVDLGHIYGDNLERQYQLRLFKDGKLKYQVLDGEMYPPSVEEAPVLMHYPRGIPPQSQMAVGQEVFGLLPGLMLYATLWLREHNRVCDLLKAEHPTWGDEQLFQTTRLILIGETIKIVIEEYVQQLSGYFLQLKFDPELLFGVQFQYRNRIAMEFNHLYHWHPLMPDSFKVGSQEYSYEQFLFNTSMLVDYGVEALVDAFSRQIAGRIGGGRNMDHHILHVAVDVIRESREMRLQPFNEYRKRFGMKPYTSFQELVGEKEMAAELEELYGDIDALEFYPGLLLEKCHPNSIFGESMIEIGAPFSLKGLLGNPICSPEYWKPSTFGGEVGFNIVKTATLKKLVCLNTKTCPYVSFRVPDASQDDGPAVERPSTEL
ATTRIBUTE_MEASURED: AC50

> print(dat)
                                   molecule  observed.measurement
1  CO[C@@]1(NC(=O)C(C(=O)O)c2ccc(O)cc2)C(=O)N2C(C(=O)O)=C(CSc3nnnn3C)CO[C@@H]21 (stereo partly drawn)               9.25 µM
2  COc1cc(C(=O)NCc2ccc(OCCN(C)C)cc2)cc(OC)c1OC [TRIMETHOBENZAMIDE]               > 30 µM
3               CN(C)CCN(Cc1ccccc1)c1ccccn1               > 30 µM
4      Cc1cccc(C)c1NC(=O)CN(CC(=O)O)CC(=O)O               > 30 µM
5  CCn1c(=O)c2c(nc(/C=C/c3ccc(OC)c(OC)c3)n2C)n(CC)c1=O               > 30 µM
6  COc1cccc2c1C(=O)c1c(O)c3c(c(O)c1C2=O)C[C@@](O)(C(=O)CO)C[C@@H]3O[C@H]1C[C@H](N)[C@H](O[C@@H]2CCCCO2)[C@H](C)O1                0.5 µM
7  N=C(N)NCC1COc2ccccc2O1 (stereo not drawn)               > 30 µM
8              COc1ccc(C(=O)c2ccccc2)c(O)c1               > 30 µM

----------
molecular target: 5-hydroxytryptamine receptor 2B (Homo sapiens); assay type: functional, cell-based; further: assay procedure not described here
Sequence (P41595 whole entry): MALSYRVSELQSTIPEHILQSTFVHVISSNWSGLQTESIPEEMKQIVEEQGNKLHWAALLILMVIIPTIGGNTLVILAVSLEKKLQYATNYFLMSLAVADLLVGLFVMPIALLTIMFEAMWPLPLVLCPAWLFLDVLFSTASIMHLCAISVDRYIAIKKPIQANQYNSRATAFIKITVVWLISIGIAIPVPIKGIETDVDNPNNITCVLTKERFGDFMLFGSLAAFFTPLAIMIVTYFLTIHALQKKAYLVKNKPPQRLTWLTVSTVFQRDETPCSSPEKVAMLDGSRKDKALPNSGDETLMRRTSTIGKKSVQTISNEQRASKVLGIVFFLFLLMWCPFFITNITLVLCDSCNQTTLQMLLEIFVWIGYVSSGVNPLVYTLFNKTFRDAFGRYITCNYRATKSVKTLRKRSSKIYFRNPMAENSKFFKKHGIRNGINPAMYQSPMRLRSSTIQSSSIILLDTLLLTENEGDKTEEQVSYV
ATTRIBUTE_MEASURED: AC50

> print(dat)
                                    molecule  observed.measurement
 1  CN(C)CCCC1(c2ccc(F)cc2)OCc2cc(C#N)ccc21 (stereo not given)              0.678 µM
 2                CN1CCCN=C1/C=C/c1cccc(O)c1               > 30 µM
 3     Cc1nnc2n1-c1ccc(Cl)cc1C(c1ccccc1)=NC2               > 10 µM
 4                              CNCCc1ccccn1               > 30 µM
 5  C[C@@H](O)[C@H]1C(=O)N2C(C(=O)O)=C(SCCN=CN)C[C@H]12 [IMIPENEM ANHYDROUS]              > 300 µM
 6                       NCC1(CC(=O)O)CCCCC1               > 30 µM
 7  COc1ccc2c3c1O[C@H]1C(=O)CC[C@H]4[C@@H](C2)N(C)CC[C@]314 [HYDROCODONE]               > 10 µM
 8  C[C@H](Nc1ncnc2[nH]cnc12)c1cc2cccc(Cl)c2c(=O)n1-c1ccccc1               > 30 µM
 9  CCCO[C@H]1[C@@H]([C@@H](COCc2ccc(Cl)cc2)OCc2ccc(Cl)cc2)OC(OCC)[C@@H]1O (stereo not given in full) [CLOBENOSIDE]               > 30 µM
10  Cc1cnc(Nc2ccc(OCCN3CCCC3)cc2)nc1Nc1cccc(S(=O)(=O)NC(C)(C)C)c1               > 10 µM
11              Oc1cc(Cl)ccc1Oc1ccc(Cl)cc1Cl               > 30 µM
12  C[C@H](CCC(=O)O)[C@H]1CC[C@H]2[C@@H]3[C@H](O)C[C@@H]4C[C@H](O)CC[C@]4(C)[C@H]3CC[C@]12C               > 30 µM
13              COc1ccc(C(=O)c2ccccc2)c(O)c1               > 30 µM
14      CC1NCCOC1c1ccccc1 (stereo not given)                 23 µM
15  CCN(CC)CCn1c(=O)c(Cc2ccc(OC)cc2)nc2ccccc21               > 30 µM
16  N=C(N)NC(=O)c1nc(Cl)c(N)nc1N [AMILORIDE]               > 30 µM
17  O=C1CC2(CCCC2)CC(=O)N1CCCCN1CCN(c2ncccn2)CC1               7.37 µM
18             Nc1ccc(S(=O)(=O)Nc2ncccn2)cc1               > 10 µM
19  CC(C)(C)NCC(O)COc1ccccc1C#N (stereo not given)                 21 µM
20                              NCCCCCC(=O)O               > 10 µM
21           C[C@@H](Cc1ccccc1)N(C)Cc1ccccc1               > 10 µM
22             Nc1nnc(-c2cccc(Cl)c2Cl)c(N)n1               > 10 µM
23        CCN(CC)CCCN(c1ccccc1)C1Cc2ccccc2C1               > 30 µM
24       c1cnc2cc3c(cc2n1)[C@@H]1CNC[C@H]3C1               > 30 µM
25  O=C(C[S+]([O-])Cc1ccco1)NC/C=C\COc1cc(CN2CCCCC2)ccn1 (stereo not given)               > 10 µM
26  COC(=O)CCc1ccc(OCC(O)CNC(C)C)cc1 (stereo not given)               > 30 µM
27    O=C(O)c1ccc2nc(-c3cc(Cl)cc(Cl)c3)oc2c1               > 30 µM
28  CCCCCCOC(=O)NC(=N)c1ccc(NCc2nc3cc(C(=O)N(CCC(=O)OCC)c4ccccn4)ccc3n2C)cc1 [DABIGATRAN ETEXILATE]               > 30 µM
29   OCC(O)COc1ccc(Cl)cc1 (stereo not given)               > 10 µM
30  CCCCC[C@H](O)CC[C@@H]1[C@H]2Cc3cccc(OCC(=O)O)c3C[C@H]2C[C@H]1O               > 30 µM
31  CCCCCCCC(=O)CC[C@@H]1[C@@H](C/C=C\CCCC(=O)O)[C@@H](O)C[C@H]1O               > 30 µM
32  COc1cc2c(cc1OC)C1CC(=O)C(CC(C)C)CN1CC2 (stereo not given)                8.6 µM
33  Nc1c2c(nc3ccccc13)CCCC2O (stereo not given)               > 30 µM
34                CCC1(c2ccccc2)C(=O)NCNC1=O               > 10 µM
35     O=C(O)COC(=O)Cc1ccccc1Nc1c(Cl)cccc1Cl               > 10 µM
36  CCOC(=O)O[C@]1(C(=O)COC(=O)CC)CC[C@H]2[C@@H]3CCC4=CC(=O)C=C[C@]4(C)[C@H]3[C@@H](O)C[C@@]21C [PREDNICARBATE]               > 10 µM
37  O=C1[C@@H]2[C@H]3CC[C@H](C3)[C@@H]2C(=O)N1C[C@@H]1CCCC[C@H]1CN1CCN(c2nsc3ccccc23)CC1              0.071 µM
38  CC1Cc2ccccc2N1NC(=O)c1ccc(Cl)c(S(N)(=O)=O)c1 (stereo not given) [INDAPAMIDE]               > 10 µM
39  C[C@]12CCC(=O)C=C1CC[C@H]1[C@@H]3CC[C@](O)(C(=O)CO)[C@@]3(C)C[C@H](O)[C@@]12F               > 10 µM
40             Nc1cc(N2CCCCC2)nc(N)[n+]1[O-]               > 10 µM

Source listed as ChEMBL document CHEMBL5291721.
